Tested on: Kocuria rhizophila
ASSAY DETAILS: Antibacterial activity against Kocuria rhizophila ATCC 9341 by broth microdilution method
Type: functional
MEASUREMENT CONTEXT: DC2201
Record form. Attribute: MIC. Fill in for each entry.
Use µM as the unit, but write only the number.

Indicate the recorded MIC value for this molecule: `CCNC1=CC(=O)C(C(C)(C)C)=CC1=O`
758

Indicate the recorded MIC value for this molecule: `CNC1=CC(=O)C(C(C)(C)C)=CC1=O`
409

Indicate the recorded MIC value for this molecule: `CCCCNC1=CC(=O)C(C(C)(C)C)=CC1=O`
2470

Indicate the recorded MIC value for this molecule: NCC[C@H](O)C(=O)N[C@@H]1C[C@H](N)[C@@H](O[C@H]2O[C@H](CN)[C@@H](O)[C@H](O)[C@H]2O)[C@H](O)[C@H]1O[C@H]1O[C@H](CO)[C@@H](O)[C@H](N)[C@H]1O [AMIKACIN]
3

Indicate the recorded MIC value for this molecule: `CCNC1=CC(=O)C=C(C(C)(C)C)C1=O`
381

Indicate the recorded MIC value for this molecule: `CNC1=CC(=O)C=C(C(C)(C)C)C1=O`
813

Indicate the recorded MIC value for this molecule: `CCCCCCCCNC1=CC(=O)C(C(C)(C)C)=CC1=O`
4300

Indicate the recorded MIC value for this molecule: `CC(C)(C)C1=CC(=O)C(NCCc2ccccc2)=CC1=O`
2210

Indicate the recorded MIC value for this molecule: `CC(C)(C)C1=CC(=O)C=C(NCCc2ccccc2)C1=O`
17700

Indicate the recorded MIC value for this molecule: `CC(C)(C)C1=CC(=O)C(NCc2ccccc2)=CC1=O`
4650

----------
System: HaCaT
ASSAY DETAILS: Induction of apoptosis in human HaCaT cells assessed as early apoptotic cells at 25 uM after 72 hrs by annexin-V/propidium iodide staining-based flow cytometric analysis (reference value: 0.2%)
Type: cell-based
METRIC: Activity (%)
Use % as the unit, but write only the number.

Indicate the recorded Activity value for this compound: `CC(C)(C)C1=CC(=O)C=C(NCCc2ccccc2)C1=O`
4.1

Indicate the recorded Activity value for this compound: `CCCCCCCCNC1=CC(=O)C=C(C[C@]2(C)[C@@H](C)CC[C@]3(C)C(C)=CCC[C@@H]23)C1=O`
0.3

Indicate the recorded Activity value for this compound: `CCCCCCCCNC1=CC(=O)C(C(C)(C)C)=CC1=O`
0

Indicate the recorded Activity value for this compound: `CC(C)(C)C1=CC(=O)C(NCCc2ccccc2)=CC1=O`
0.8

Indicate the recorded Activity value for this compound: `CCCCCCCCNC1=CC(=O)C(C[C@]2(C)[C@@H](C)CC[C@]3(C)C(C)=CCC[C@@H]23)=CC1=O`
0.1

Indicate the recorded Activity value for this compound: `CCCCCCCCNC1=CC(=O)C=C(C(C)(C)C)C1=O`
0.6

Indicate the recorded Activity value for this compound: `CC1=CCC[C@H]2[C@](C)(CC3=CC(=O)C=C(NCCc4ccccc4)C3=O)[C@@H](C)CC[C@]12C`
0.2

Indicate the recorded Activity value for this compound: `CC1=CCC[C@H]2[C@](C)(CC3=CC(=O)C(NCCc4ccccc4)=CC3=O)[C@@H](C)CC[C@]12C`
0.3

Indicate the recorded Activity value for this compound: `CC1=CCC[C@H]2[C@](C)(CC3=CC(=O)C=CC3=O)[C@@H](C)CC[C@]12C`
2.5

Indicate the recorded Activity value for this compound: `CC(C)(C)C1=CC(=O)C=CC1=O`
1.9

----------
System: NCI-H460
ASSAY DETAILS: Induction of apoptosis in multidrug resistant human NCI-H460 cells assessed as early apoptotic cells at 25 uM after 72 hrs by annexin-V/propidium iodide staining-based flow cytometric analysis (reference value: 1.1%)
Assay type: functional
METRIC: Activity (%)
Use % as the unit, but write only the number.

Indicate the recorded Activity value for this compound: `CC(C)(C)C1=CC(=O)C=C(NCCc2ccccc2)C1=O`
2

Indicate the recorded Activity value for this compound: `CC(C)(C)C1=CC(=O)C=CC1=O`
0.5

Indicate the recorded Activity value for this compound: `CCCCCCCCNC1=CC(=O)C(C[C@]2(C)[C@@H](C)CC[C@]3(C)C(C)=CCC[C@@H]23)=CC1=O`
0.1

Indicate the recorded Activity value for this compound: `CC(C)(C)C1=CC(=O)C(NCCc2ccccc2)=CC1=O`
1.3

Indicate the recorded Activity value for this compound: `CC1=CCC[C@H]2[C@](C)(CC3=CC(=O)C(NCCc4ccccc4)=CC3=O)[C@@H](C)CC[C@]12C`
0.4

Indicate the recorded Activity value for this compound: `CCCCCCCCNC1=CC(=O)C(C(C)(C)C)=CC1=O`
0.2

Indicate the recorded Activity value for this compound: `CC1=CCC[C@H]2[C@](C)(CC3=CC(=O)C=C(NCCc4ccccc4)C3=O)[C@@H](C)CC[C@]12C`
1.2

Indicate the recorded Activity value for this compound: `CCCCCCCCNC1=CC(=O)C=C(C(C)(C)C)C1=O`
0.1

Indicate the recorded Activity value for this compound: CC1=CCC[C@H]2[C@](C)(CC3=CC(=O)C=CC3=O)[C@@H](C)CC[C@]12C [AVARONE]
2.6

Indicate the recorded Activity value for this compound: `CCCCCCCCNC1=CC(=O)C=C(C[C@]2(C)[C@@H](C)CC[C@]3(C)C(C)=CCC[C@@H]23)C1=O`
0

----------
Record form. Attribute: viability at 72 h, 25 µM. Fill in for each entry.
ASSAY DETAILS: Induction of apoptosis in human HaCaT cells assessed as live cells at 25 uM after 72 hrs by annexin-V/propidium iodide staining-based flow cytometric analysis (reference value: 96.8%)
Type: cell-based
MEASUREMENT CONTEXT: read-out: Activity
Use % as the unit, but write only the number.

Indicate the recorded viability at 72 h, 25 µM value for this molecule: `CC1=CCC[C@H]2[C@](C)(CC3=CC(=O)C=CC3=O)[C@@H](C)CC[C@]12C`
78.3

Indicate the recorded viability at 72 h, 25 µM value for this molecule: `CC(C)(C)C1=CC(=O)C(NCCc2ccccc2)=CC1=O`
89.2

Indicate the recorded viability at 72 h, 25 µM value for this molecule: `CCCCCCCCNC1=CC(=O)C(C[C@]2(C)[C@@H](C)CC[C@]3(C)C(C)=CCC[C@@H]23)=CC1=O`
93.4

Indicate the recorded viability at 72 h, 25 µM value for this molecule: `CCCCCCCCNC1=CC(=O)C(C(C)(C)C)=CC1=O`
93.8

Indicate the recorded viability at 72 h, 25 µM value for this molecule: `CCCCCCCCNC1=CC(=O)C=C(C[C@]2(C)[C@@H](C)CC[C@]3(C)C(C)=CCC[C@@H]23)C1=O`
85.3

----------
Record form. Attribute: IC50. Fill in for each entry.
Test system: NCI-H460
ASSAY DETAILS: Cytotoxicity against human NCI-H460 cells after 72 hrs by MTT assay
Type: functional, cell-based
MEASUREMENT CONTEXT: NCI-H460, 72 h
Use µM as the unit, but write only the number.

Indicate the recorded IC50 value for this molecule: `CNC1=CC(=O)C(C(C)(C)C)=CC1=O`
63

Indicate the recorded IC50 value for this molecule: `CCNC1=CC(=O)C(C(C)(C)C)=CC1=O`
64

Indicate the recorded IC50 value for this molecule: `CC1=CCC[C@H]2[C@](C)(CC3=CC(=O)C=C(NCCc4ccccc4)C3=O)[C@@H](C)CC[C@]12C`
21

Indicate the recorded IC50 value for this molecule: `CCCCNC1=CC(=O)C=C(C(C)(C)C)C1=O`
14

Indicate the recorded IC50 value for this molecule: `CC(C)(C)C1=CC(=O)C(NCCc2ccccc2)=CC1=O`
35

Indicate the recorded IC50 value for this molecule: `CCCCNC1=CC(=O)C(C(C)(C)C)=CC1=O`
36

Indicate the recorded IC50 value for this molecule: `CC(C)(C)C1=CC(=O)C=C(NCCc2ccccc2)C1=O`
14

Indicate the recorded IC50 value for this molecule: `CCCCCCCCNC1=CC(=O)C=C(C[C@]2(C)[C@@H](C)CC[C@]3(C)C(C)=CCC[C@@H]23)C1=O`
38

Indicate the recorded IC50 value for this molecule: `CC1=CCC[C@H]2[C@](C)(CC3=CC(=O)C=CC3=O)[C@@H](C)CC[C@]12C`
84

Indicate the recorded IC50 value for this molecule: `CNC1=CC(=O)C=C(C(C)(C)C)C1=O`
25

Indicate the recorded IC50 value for this molecule: `CCCCNC1=CC(=O)C=C(C[C@]2(C)[C@@H](C)CC[C@]3(C)C(C)=CCC[C@@H]23)C1=O`
16

Indicate the recorded IC50 value for this molecule: `CCCCCCCCNC1=CC(=O)C(C(C)(C)C)=CC1=O`
70

Indicate the recorded IC50 value for this molecule: `CCCCCCCCNC1=CC(=O)C=C(C(C)(C)C)C1=O`
20

Indicate the recorded IC50 value for this molecule: `CCNC1=CC(=O)C=C(C(C)(C)C)C1=O`
13

Indicate the recorded IC50 value for this molecule: `CC(C)(C)C1=CC(=O)C(NCc2ccccc2)=CC1=O`
19

Indicate the recorded IC50 value for this molecule: `CC(C)(C)C1=CC(=O)C=C(NCc2ccccc2)C1=O`
14
